The origin of these recorded values is paper PMC3715451.

Target system: Cytochrome c Peroxidase Gateless cavity (P190G/W191G/Δ192-3) (Saccharomyces cerevisiae, UniProt P00431, A260G/D219G/DEL257-258/P257G/T120I/W258G)
Construct: made in house
Assay summary: Binding to the CcP Gateless cavity by titration of the UV-Vis Heme Soret band (or ITC)
Reported conditions: compounds selected from the SEV docking screen; CcP Gateless cavity; UV-Vis Heme Soret band titration; read-out: KD
Give pKd for every item shown.
Numbers only, as −log10 of the molar value.

Cc1cn2cccc(O)c2n1
4.80
Nc1c(Br)cnc2ccccc12
4.72
Cn1ccnc1Sc1ccccc1N
3.69
Nc1cccc2nccn12 [Compound 14, imidazo[1,2-a]pyridin-5-amine]
4.85

Provide pKd for all items below, preserving their order.
1. C[C@@H](O)CNc1ncnc2ccccc12
2. Nc1c2c(nc3sccc13)CCCC2
3. CNc1nc2ccccc2[nH]1
4. Nc1c([N+](=O)[O-])cnc2ccccc12
5. Nc1ccc2nccn2c1 [Compound 20, Imidazo[1,2-a]pyridin-6-amine]
6. Cc1cc(N)n(-c2ccccc2[N+](=O)[O-])n1
7. OCc1cnc2cc[nH]c2c1 [Compound 17, (1H-Pyrrolo[3,2-b]pyridin-6-yl)methanol]
8. COc1ccc(Nc2cc(C)nc(N)n2)cc1

Solution:
4.43
4.19
3.54
5.10
3.54
3.08
3.01
4.77

====

Give ΔG for every item shown.
Target system: CcP Gateless (Saccharomyces cerevisiae, UniProt P00431, A260G/D219G/DEL257-258/P257G/T120I/W258G)
Construct: made in house
Sequence (P00431 other isoform, or with tags, fused parts or gaps T120I/D219G/DEL257-258/A260G): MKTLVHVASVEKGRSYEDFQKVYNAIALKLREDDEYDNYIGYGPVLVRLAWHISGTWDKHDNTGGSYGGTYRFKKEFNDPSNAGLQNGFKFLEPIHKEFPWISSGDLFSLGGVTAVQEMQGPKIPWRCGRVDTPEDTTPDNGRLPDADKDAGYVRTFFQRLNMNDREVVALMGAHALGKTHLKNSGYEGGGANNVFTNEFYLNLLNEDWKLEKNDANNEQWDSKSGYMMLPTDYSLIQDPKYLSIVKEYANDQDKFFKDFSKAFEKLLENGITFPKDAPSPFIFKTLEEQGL
Assay summary: Low C-value Isothermal Titration Calorimetry against CcP Gateless
Type: binding
Reported conditions: ITC, 283K; † approximate value from partial ITC curves
Answers are plain numbers, in kcal/mol.

Nc1ccnc(N)n1
-4.42

Provide ΔG for all items below, preserving their order.
1. Nc1cccc(N)n1
2. Cc1cnc(N)s1

Solution:
-5.73
-5.21

====

Target system: Cytochrome c Peroxidase Gateless cavity (P190G/W191G/Δ192-3) (Saccharomyces cerevisiae, UniProt P00431, A260G/D219G/DEL257-258/P257G/T120I/W258G)
Construct: made in house
Assay summary: Binding to the CcP Gateless cavity by titration of the UV-Vis Heme Soret band (or ITC)
Reported conditions: six known W191G ligands; UV-Vis titration or ITC; † = approximate KD by endpoint UV-Vis assay or partial ITC curves, limited by solubility; read-out: KD Gateless
Give Kd for every item shown.
One number for each entry, in µM.

Provide Kd for all items below, preserving their order.
1. Cc1cnc(N)s1
2. Nc1ccnc(N)n1
3. Nc1cccc(N)n1

Solution:
1: 95; 2: 389; 3: 38

====

Target system: CcP Gateless (Saccharomyces cerevisiae, UniProt P00431, A260G/D219G/DEL257-258/P257G/T120I/W258G)
Construct: made in house
Assay summary: Low C-value Isothermal Titration Calorimetry against CcP Gateless
Assay type: binding
Reported conditions: ITC, 283K; † approximate value from partial ITC curves
Observed property: ΔH (kJ/mol)
Numbers only, in kJ/mol.

# count of solved cases: 2
Cc1cnc(N)s1
-20.9
Nc1cccc(N)n1
-37.8

API: the following record is the query input.
Exercise: Reported ΔH, compound `Nc1ccnc(N)n1` : ____
Solution: -23.3
